studySystem: T1, cyno PD-1 (soluble analyte in SPR) (cyno)
T1 construct: also called cynomolgus PD-1
assayOverview: SPR (ProteOn XPR36), mAb captured on anti-human IgG Fc, cyno PD-1 as analyte, 25 C
The binders listed here are annotated with their kon.
Give the number; M⁻¹ s⁻¹ is assumed, so skip it.

# lookup: kon of PD1B1086 (antibody, human IgG1, kappa, V domains shown, also called VH PD1H586; VL PD1L469) VH: QVQLVQSGSELKKPGASVKVSCKASGYTFTDYSMHWVRQAPGQGLEWMGWINIETGHPTYAQGFTGRFVFSLDTSVSTAYLQISSLKAEDTAVYFCARDYYGTYFYAMDYWGQGTLVTVSS VL: EIVLTQSPATLSLSPGERATLSCTASSSVSSSYLHWYQQKPGLAPRLLIYSTSNLASGIPDRFSGSGSGTDYTLTISRLEPEDFAVYYCHQYHRSPLTFGQGTKLEIKR
171000

Others:
# lookup: kon of PD1B1087 (antibody, human IgG1, kappa, V domains shown, also called VH PD1H587; VL PD1L469) VH: QVQLVQSGSELKKPGASVKVSCKASGYTFTDYSMHWVRQAPGQGLEWMGWINIETGWPTYAQGFTGRFVFSLDTSVSTAYLQISSLKAEDTAVYFCARDYYGTYFYAMDYWGQGTLVTVSS VL: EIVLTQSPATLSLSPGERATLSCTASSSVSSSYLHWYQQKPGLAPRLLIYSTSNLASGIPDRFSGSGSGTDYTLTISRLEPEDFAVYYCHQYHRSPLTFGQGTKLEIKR
212000

Now consider PD1B1090 (antibody, human IgG1, kappa, V domains shown, also called VH PD1H585; VL PD1L651) VH: QVQLVQSGSELKKPGASVKVSCKASGYTFTDYSMHWVRQAPGQGLEWMGWINIETGYPTYAQGFTGRFVFSLDTSVSTAYLQISSLKAEDTAVYFCARDYYGTYFYAMDYWGQGTLVTVSS VL: EIVLTQSPATLSLSPGERATLSCTASSSFSSSYLHWYQQKPGLAPRLLIYSTSNLASGIPDRFSGSGSGTDYTLTISRLEPEDFAVYYCHQYHRSPLTFGQGTKLEIKR and answer again.
130000

Now consider PD1B1092 (antibody, human IgG1, kappa, V domains shown, also called VH PD1H587; VL PD1L651) VH: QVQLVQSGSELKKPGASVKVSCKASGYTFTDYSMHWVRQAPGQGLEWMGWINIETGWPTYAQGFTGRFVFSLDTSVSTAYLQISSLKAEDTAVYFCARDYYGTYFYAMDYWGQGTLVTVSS VL: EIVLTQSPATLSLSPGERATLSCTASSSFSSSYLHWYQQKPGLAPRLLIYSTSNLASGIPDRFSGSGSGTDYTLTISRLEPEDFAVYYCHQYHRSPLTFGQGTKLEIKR and answer again.
129000

Now consider PD1B1093 (antibody, human IgG1, kappa, V domains shown, also called VH PD1H585; VL PD1L652) VH: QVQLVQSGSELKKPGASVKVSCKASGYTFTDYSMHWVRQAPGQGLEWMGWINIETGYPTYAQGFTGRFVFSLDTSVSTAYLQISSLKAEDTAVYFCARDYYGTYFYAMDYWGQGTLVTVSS VL: EIVLTQSPATLSLSPGERATLSCTASSSVPSSYLHWYQQKPGLAPRLLIYSTSNLASGIPDRFSGSGSGTDYTLTISRLEPEDFAVYYCHQYHRSPLTFGQGTKLEIKR and answer again.
169000

FYI, the data here is from patent US20180355061A1.
